Consider the following compounds; for each one, report its half-life.
- test_protocol: Half life in human liver microsomes
- Assay type: ADME
Give just the numeric value; h need not be written.

Problem: Fill in: half-life of Cc1cnc(N)nc1OCC(C)(C)CO is ___
Result: 5.5

Problem: Fill in: half-life of Cc1cnc(N)nc1OCC(C)(C)C is ___
Result: 0.5

====

- test_protocol: Half life in human plasma
- Assay type: ADME, cell-free
Consider the following molecules; for each one, report its half-life.
Give just the numeric value; h need not be written.

Problem: Fill in: half-life of Cc1cnc(N)nc1OCC(C)(C)CO is ___
Result: 58

Problem: Fill in: half-life of Cc1cnc(N)nc1OCC(C)(C)C is ___
Result: 19

====

- System: Liver microsome
- test_protocol: Intrinsic clearance in human liver microsomes
- Assay type: ADME
Consider the following molecules; for each one, report its CLH.
Give just the numeric value; µL/min/mg need not be written.

Problem: Fill in: CLH of Cc1cnc(N)nc1OCC(C)(C)CO is ___
Result: 7.5

Problem: Fill in: CLH of Cc1cnc(N)nc1OCC(C)(C)C is ___
Result: 82

====

Consider the following molecules; for each one, report its Papp.
- test_protocol: Permeability across MDCK cells
- Assay type: ADME, cell-based, Canis lupus familiaris
- recorded_conditions: dog, read-out: permeability
Give just the numeric value; ×10⁻⁶ cm/s need not be written.

Problem: Fill in: Papp of CNc1cc(-c2cccc(Cl)c2Cl)nc(N)n1 is ___
Result: 30

Problem: Fill in: Papp of Cc1cnc(N)nc1OCC(C)(C)CO is ___
Result: 32

Problem: Fill in: Papp of Cc1cnc(N)nc1OCC(C)(C)C is ___
Result: 37

====

- test_protocol: Efflux ratio of permeability in MDCK cells
- Assay type: ADME, cell-based, Canis lupus familiaris
- recorded_conditions: dog
Consider the following compounds; for each one, report its efflux ratio.

Problem: Fill in: efflux ratio of Cc1cnc(N)nc1OCC(C)(C)C is ___
Result: 0.8

Problem: Fill in: efflux ratio of Cc1cnc(N)nc1OCC(C)(C)CO is ___
Result: 0.8

Problem: Fill in: efflux ratio of CNc1cc(-c2cccc(Cl)c2Cl)nc(N)n1 is ___
Result: 0.8

====

- Tested on: Liver microsome
- test_protocol: Intrinsic clearance in human liver microsomes at 1 uM up to 40 mins by LC-MS/MS analysis
- Assay type: ADME
recorded_endpoint: CLH (µL/min/mg)
Give just the numeric value; µL/min/mg need not be written.

Problem: Fill in: CLH of CNc1cc(-c2cccc(Cl)c2Cl)nc(N)n1 is ___
Result: 54

====

- test_protocol: Fraction unbound in human plasma
- Type: ADME, cell-free
recorded_endpoint: fraction unbound
Lab note: jot the number down without any unit.

Problem: Fill in: fraction unbound of Cc1cnc(N)nc1OCC(C)(C)CO is ___
Result: 0.46

====

- test_protocol: Plasma protein binding in human
- Format: ADME, cell-free
- recorded_conditions: read-out: PPB (converted)
Consider the following compounds; for each one, report its fraction unbound.

Problem: Fill in: fraction unbound of Cc1cnc(N)nc1OCC(C)(C)CO is ___
Result: 0.46

Problem: Fill in: fraction unbound of Cc1cnc(N)nc1OCC(C)(C)C is ___
Result: 0.06

====

Consider the following compounds; for each one, report its half-life.
- test_protocol: Half life in mouse liver microsomes
- Format: ADME
Give just the numeric value; min need not be written.

Problem: Fill in: half-life of Cc1cnc(N)nc1OCC(C)(C)C is ___
Result: 18

Problem: Fill in: half-life of Cc1cnc(N)nc1OCC(C)(C)CO is ___
Result: 90

Reference source: ChEMBL document CHEMBL3779767
